# targetSystem: EGFR (human) (UniProt P00533)
# Sequence (P00533 whole entry, looked up): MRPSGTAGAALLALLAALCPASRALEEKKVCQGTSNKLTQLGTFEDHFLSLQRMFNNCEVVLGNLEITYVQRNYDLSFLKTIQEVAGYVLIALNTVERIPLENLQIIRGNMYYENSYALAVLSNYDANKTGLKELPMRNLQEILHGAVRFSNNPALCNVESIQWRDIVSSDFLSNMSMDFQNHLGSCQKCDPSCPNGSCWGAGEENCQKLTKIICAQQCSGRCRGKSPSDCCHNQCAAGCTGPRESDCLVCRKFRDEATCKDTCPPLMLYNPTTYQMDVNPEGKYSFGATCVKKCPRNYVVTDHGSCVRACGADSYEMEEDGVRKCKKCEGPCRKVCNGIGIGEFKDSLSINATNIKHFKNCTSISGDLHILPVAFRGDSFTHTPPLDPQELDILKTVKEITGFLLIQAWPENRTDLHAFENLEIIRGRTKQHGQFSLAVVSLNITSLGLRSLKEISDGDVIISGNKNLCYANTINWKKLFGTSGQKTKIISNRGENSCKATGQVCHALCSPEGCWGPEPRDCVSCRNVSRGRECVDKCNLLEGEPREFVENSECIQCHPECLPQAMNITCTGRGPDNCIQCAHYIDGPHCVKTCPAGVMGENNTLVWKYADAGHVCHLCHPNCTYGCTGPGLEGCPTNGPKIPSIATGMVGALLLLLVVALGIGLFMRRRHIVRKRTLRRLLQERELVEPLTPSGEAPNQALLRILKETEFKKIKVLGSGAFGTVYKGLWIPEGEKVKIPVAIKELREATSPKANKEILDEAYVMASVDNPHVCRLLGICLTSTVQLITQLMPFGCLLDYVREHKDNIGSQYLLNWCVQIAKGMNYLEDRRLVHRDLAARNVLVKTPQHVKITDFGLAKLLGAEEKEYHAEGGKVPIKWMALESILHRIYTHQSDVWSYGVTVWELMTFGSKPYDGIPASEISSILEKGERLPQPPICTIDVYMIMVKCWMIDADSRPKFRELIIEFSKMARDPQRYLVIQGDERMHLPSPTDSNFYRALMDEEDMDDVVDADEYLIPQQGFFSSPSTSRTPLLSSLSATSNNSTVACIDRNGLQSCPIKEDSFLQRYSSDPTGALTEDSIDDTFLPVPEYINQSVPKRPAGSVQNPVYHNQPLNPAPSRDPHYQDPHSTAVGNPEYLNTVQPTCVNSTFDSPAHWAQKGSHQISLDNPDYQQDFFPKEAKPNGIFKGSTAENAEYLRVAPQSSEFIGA
# conditionDetails: a431
reportedMetric: IC50 (nM)

N#Cc1cnc2ccc(NCc3c[nH]cn3)cc2c1Nc1ccc(F)c(Cl)c1 :: 30

---

In this section, each of the compounds is paired with its reported IC50.
# targetSystem: EGFR (human) (UniProt P00533)
# conditionDetails: A431
reportedMetric: IC50

c1ccc(COc2ccc(Nc3ncnc4ccc(-c5ccc(CNCc6cccnc6)o5)cc34)cc2)cc1 :: 200 nM
Cc1nnc(-c2ccc3ncnc(Nc4ccc(OCc5cc(F)cc(F)c5)cc4)c3c2)o1 :: 9 nM

---

# targetSystem: MAPK14 (human) (UniProt Q16539)
# Sequence (Q16539 whole entry, looked up): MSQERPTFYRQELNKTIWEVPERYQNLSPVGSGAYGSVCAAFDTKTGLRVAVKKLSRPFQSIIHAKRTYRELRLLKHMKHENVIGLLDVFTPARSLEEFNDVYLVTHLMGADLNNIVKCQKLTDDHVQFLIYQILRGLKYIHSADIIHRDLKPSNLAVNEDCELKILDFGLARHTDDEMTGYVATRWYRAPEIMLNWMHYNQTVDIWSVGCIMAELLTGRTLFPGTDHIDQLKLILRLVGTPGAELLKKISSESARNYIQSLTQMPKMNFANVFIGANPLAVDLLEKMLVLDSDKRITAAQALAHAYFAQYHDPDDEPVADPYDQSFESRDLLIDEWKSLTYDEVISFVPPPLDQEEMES
# assayInfo: Cellular Inhibition of MAPK14 Kinase in A549 Cells
reportedMetric: IC50 (µM)

CNc1nccc(-c2cn(C(C)C)nc2-c2cc(Cl)cc(NS(C)(=O)=O)c2F)n1 :: 17
COC(=O)N[C@@H](C)CNc1nccc(-c2cn(C(C)C)nc2-c2cc(Cl)cc(NS(C)(=O)=O)c2F)n1 :: 2.2
COC(=O)NC[C@H](C)Nc1nccc(-c2cn(C(C)C)nc2-c2cc(Cl)cc(NS(C)(=O)=O)c2F)n1 :: 0.69

---

# targetSystem: ROCK2 (human) (UniProt O75116)
# Sequence (O75116 whole entry, looked up): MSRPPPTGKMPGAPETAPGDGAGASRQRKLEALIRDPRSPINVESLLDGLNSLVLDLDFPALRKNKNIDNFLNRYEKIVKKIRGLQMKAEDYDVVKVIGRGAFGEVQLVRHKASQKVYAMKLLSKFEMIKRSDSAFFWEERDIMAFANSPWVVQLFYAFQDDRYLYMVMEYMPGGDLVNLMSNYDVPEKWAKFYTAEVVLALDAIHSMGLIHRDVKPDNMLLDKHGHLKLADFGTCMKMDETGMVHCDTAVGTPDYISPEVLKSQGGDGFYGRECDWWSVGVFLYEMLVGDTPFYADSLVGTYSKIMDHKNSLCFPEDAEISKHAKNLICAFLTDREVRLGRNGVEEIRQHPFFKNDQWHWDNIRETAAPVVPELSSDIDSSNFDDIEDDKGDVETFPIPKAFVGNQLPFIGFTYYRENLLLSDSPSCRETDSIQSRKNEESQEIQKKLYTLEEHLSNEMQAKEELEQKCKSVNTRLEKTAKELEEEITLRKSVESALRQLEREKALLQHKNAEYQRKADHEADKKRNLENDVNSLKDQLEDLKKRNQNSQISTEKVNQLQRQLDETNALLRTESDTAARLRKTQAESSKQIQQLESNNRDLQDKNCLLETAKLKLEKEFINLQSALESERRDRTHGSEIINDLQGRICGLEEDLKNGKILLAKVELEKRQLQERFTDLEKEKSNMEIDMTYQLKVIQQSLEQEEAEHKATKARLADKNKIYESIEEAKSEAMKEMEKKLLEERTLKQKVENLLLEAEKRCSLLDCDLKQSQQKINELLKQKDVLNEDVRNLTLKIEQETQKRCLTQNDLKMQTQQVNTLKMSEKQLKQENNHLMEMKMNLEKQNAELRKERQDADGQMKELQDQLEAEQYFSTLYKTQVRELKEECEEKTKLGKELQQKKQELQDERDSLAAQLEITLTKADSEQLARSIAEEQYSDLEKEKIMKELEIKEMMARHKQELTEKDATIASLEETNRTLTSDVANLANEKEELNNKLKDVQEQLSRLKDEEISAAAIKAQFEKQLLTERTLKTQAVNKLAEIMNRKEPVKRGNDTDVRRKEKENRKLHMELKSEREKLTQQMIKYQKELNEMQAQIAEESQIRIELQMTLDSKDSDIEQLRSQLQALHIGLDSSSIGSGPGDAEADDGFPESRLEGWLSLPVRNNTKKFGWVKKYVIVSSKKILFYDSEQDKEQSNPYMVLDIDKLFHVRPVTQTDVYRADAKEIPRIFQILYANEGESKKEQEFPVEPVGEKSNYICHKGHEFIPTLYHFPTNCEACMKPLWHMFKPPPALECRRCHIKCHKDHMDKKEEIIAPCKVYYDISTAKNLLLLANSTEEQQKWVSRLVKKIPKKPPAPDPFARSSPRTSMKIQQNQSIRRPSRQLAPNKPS
# assayInfo: Enzyme Assay
reportedMetric: IC50 (nM)

COc1ccc2c(c1)CN(c1nc3c(c(Nc4ccc5[nH]ncc5c4)n1)CNC3)C2 :: 24300
NCc1ccc(C(=O)Nc2ccncc2F)cc1-c1cccc(C(=O)Nc2ccc(C(=O)O)cc2)c1 :: 1
COc1cc(C(=O)NCc2ccc(Cl)cc2)ccc1-c1cn[nH]c1 :: 4.93
COc1cc(C(=O)NCc2cccc(Cl)c2)ccc1-c1cn[nH]c1 :: 49.7

---

# targetSystem: MAPK14 (human) (UniProt Q16539)
# assayInfo: Assessment of MAPK14 Kinase Activity
reportedMetric: Ki (nM)

c1ccc(-c2noc(CN3CCCCC3)c2-c2ccnc(NC3CCCCC3)n2)cc1 :: 2

---

# targetSystem: CDK2 (UniProt P24941)
# assayInfo: Enzyme Assay
# conditionDetails: concentration not given here
reportedMetric: inhibition (%)

CN(C)c1ccc(Nc2nc(N)c(C(=O)OC(C)(C)C)s2)cc1 :: 0
C=CCn1c(=O)c2cnc(Nc3ccc(N4CCN(C)CC4)cc3)nc2n(C(C)C)c1=O :: 0
Nc1nc(NC(=O)OCc2ccccc2)c(N=O)c(OCC2CCCCC2)n1 :: 24
Cc1cc(NC(=O)c2ccc(F)c(OCc3cncc4ccccc34)c2)ccc1C(C)C :: 12
C(=C\c1n[nH]c2cc(-c3ccccc3)ccc12)/c1ccccc1 :: 0
C=CCn1c(=O)c2cnc(Nc3ccc(OCCN(CC)CC)cc3)nc2n(C(C)C)c1=O :: 0
C=C(c1cccc(NC(C)=O)c1)c1ccc2c(/C=C/c3ccccc3)n[nH]c2c1 :: 0
Cc1ccc2cc(NC(=O)c3cccc(SCc4cc(Nc5ccccc5)n[nH]4)c3)ccc2n1 :: 23
Nc1nc(N)c(N=Nc2ccc(Cl)cc2)c(OCC2CCCCC2)n1 :: 6
Nc1n[nH]c(N)c1N=Nc1ccc(O)cc1 :: 69

---

# targetSystem: UniProtKB P00533
pIC50: −log10 of the molar value.
reportedMetric: pIC50

CCN(CC)CC1CCN(c2ncc3ncnc(Nc4ccc(F)c(Cl)c4)c3n2)CC1 :: 8.52

---

# targetSystem: EGFR (human)
pIC50: −log10 of the molar value.
reportedMetric: pIC50

COc1cc2ncnc(Nc3cccc(Cl)c3F)c2cc1OC1CCN(C(=O)OCCN2CCCCC2)CC1 :: 8.70

---

# targetSystem: UniProt Q16539
# assayInfo: p38 Inhibition (Phosphorylation of EGF Receptor Peptide)
pIC50: −log10 of the molar value.
reportedMetric: pIC50

O=c1ncn2nc(Sc3ccccc3)ccc2c1-c1ccccc1 :: < 4.70

---

# targetSystem: EGFR (human) (UniProt P00533)
reportedMetric: IC50 (µM)

COc1cc2ncnc(Nc3ccc(NC(=O)NC4CCCCC4)cc3)c2cc1OC :: 9.81

---

# targetSystem: EGFR (human), P00533 [WT]
reportedMetric: IC50 (nM)

COc1cc(N2CCN(C(C)=O)CC2)ccc1Nc1ncc(Cl)c(-c2c[nH]c3ccccc23)n1 :: 79

---

# targetSystem: EGFR (human), P00533 [T790M]
# Sequence (P00533 whole entry T790M, looked up): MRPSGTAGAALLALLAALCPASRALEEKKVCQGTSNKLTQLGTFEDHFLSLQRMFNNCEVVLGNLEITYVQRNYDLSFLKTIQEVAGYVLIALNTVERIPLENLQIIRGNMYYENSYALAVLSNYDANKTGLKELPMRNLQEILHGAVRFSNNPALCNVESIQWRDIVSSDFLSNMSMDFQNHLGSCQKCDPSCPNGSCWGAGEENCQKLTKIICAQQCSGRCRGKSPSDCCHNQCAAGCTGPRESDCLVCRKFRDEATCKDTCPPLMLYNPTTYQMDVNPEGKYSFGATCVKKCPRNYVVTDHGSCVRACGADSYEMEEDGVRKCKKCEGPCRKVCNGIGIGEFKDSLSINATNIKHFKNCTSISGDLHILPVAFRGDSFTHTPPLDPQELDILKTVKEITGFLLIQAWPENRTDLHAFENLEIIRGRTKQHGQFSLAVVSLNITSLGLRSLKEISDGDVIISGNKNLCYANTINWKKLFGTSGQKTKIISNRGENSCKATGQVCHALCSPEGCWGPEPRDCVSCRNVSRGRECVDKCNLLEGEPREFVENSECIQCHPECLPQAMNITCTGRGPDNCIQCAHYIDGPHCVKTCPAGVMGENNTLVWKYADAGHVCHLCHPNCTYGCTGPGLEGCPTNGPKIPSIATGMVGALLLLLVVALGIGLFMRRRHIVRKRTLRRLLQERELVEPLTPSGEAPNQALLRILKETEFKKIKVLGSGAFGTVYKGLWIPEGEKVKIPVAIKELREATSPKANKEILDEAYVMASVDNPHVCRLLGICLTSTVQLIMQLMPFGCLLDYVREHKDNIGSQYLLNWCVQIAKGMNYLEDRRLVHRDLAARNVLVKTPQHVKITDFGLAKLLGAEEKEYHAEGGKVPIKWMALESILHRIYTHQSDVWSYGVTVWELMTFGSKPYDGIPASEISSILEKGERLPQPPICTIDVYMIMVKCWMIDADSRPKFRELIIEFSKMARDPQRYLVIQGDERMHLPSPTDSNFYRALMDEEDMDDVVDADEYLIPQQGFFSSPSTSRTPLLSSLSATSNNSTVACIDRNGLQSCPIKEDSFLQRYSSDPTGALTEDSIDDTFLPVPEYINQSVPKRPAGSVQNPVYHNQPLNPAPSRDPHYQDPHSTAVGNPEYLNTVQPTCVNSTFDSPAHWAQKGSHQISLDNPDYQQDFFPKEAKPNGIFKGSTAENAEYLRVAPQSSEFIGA
# conditionDetails: h1975
pIC50: −log10 of the molar value.
reportedMetric: pIC50

O=C(CCN1CCOCC1)Nc1ccc2ncnc(Nc3cccc(Br)c3)c2c1 :: < 4.70

---

# targetSystem: MAPK14 (human)
# assayInfo: Assessment of MAPK14 Kinase Activity
// boundary case: IC50 equal to 40 nM maps to not met; strictly smaller maps to met

CNc1nccc(-c2cccnc2Oc2ccc(Nc3nnc(-c4ccc(F)cc4)c4ccccc34)cc2)n1 :: not met
CN(C)C(=O)[C@@H]1CCCN1c1nccc(Oc2ccc(NC(=O)c3cc(F)cc(N4CCCCC4)c3)c3ccccc23)n1 :: not met
Fc1cc(-c2[nH]c(SCc3ccccc3)nc2-c2cccc(C(F)(F)F)c2)ccn1 :: not met
CC(Oc1nncc2cc(Nc3ccc(F)cc3F)ccc12)C(F)(F)F (stereo not given) :: met
CSc1nc(-c2ccc(F)cc2)c(-c2ccnc(NC(C)C(C)(C)C)c2)[nH]1 (stereo not given) :: met

---

# targetSystem: EGFR (human) (UniProt P00533)
# conditionDetails: a431
In this section, each of the molecules is paired with its reported IC50.
reportedMetric: IC50

Cc1ccccc1Cc1cc2c(Nc3ccc(Cl)cc3)nc(N)nc2[nH]1 :: 0.24 µM
Nc1nc(Nc2ccc(Cl)cc2F)c2cc(Cc3cccc4ccccc34)[nH]c2n1 :: > 200 µM
Cc1ccccc1Cc1cc2c(Nc3ccc(Cl)cc3F)nc(N)nc2[nH]1 :: > 200 µM

---

# targetSystem: UniProt:P24941
pIC50: −log10 of the molar value.
reportedMetric: pIC50

CC(C)=CCNc1ncnc2[nH]cnc12 :: 4.30

---

In this section, each of the molecules is paired with its reported IC50.
# targetSystem: UniProt:Q16539
# assayInfo: Inhibition of MAPK14 Kinase Activity
reportedMetric: IC50 (nM)

O=C(c1cccc2[nH]ccc12)N1CCN(Cc2ccccc2)CC1 :: 1540
COc1cc2ncnc(Nc3cccc(NC(=O)c4ccccc4)c3)c2cc1OC :: 141
CC(C)(CO)Nc1nccc(CCc2c[nH]c3ccc(N)cc23)n1 :: 1500
NC(=O)c1cc(Cl)c(N2C(=O)NCc3nc(Sc4ccc(F)cc4)ccc32)c(Cl)c1 :: 23
Cc1cccc(-c2n[nH]cc2-c2ccc(O)cc2)n1 :: 31
Cc1ccccc1C(=O)c1ccc(Nc2cncc3ccccc23)cc1Cl :: 12.8
Cc1ccc(Sc2ccc3c(-c4c(Cl)cccc4Cl)c(=O)ncn3n2)c(C)c1 :: 264

---

# targetSystem: UniProt Q16539
# assayInfo: Inhibition of MAPK14 Kinase Activity
// boundary case: IC50 equal to 30 nM maps to false; strictly smaller maps to true

CCNC(=O)Nc1ccc2ncc(-c3ccc(O)c(OC)c3)nc2n1 :: false
CC(C)c1nnc2ccc([S+]([O-])c3ccccc3CNC(=O)Nc3cc(C(C)(C)C)nn3-c3ccc(O)c(Cl)c3)cn12 (stereo not drawn) :: false
CC(n1c(N)nc2ccc(-c3[nH]c(C(C)(C)C)nc3-c3ccc(F)cc3)nc21)C(C)(C)C (stereo not drawn) :: true
CCCCN(C)c1nc(NCCc2ccccc2OC)nc(NC(Cc2c[nH]c3ncccc23)C(N)=O)n1 (stereo not drawn) :: false
N#Cc1cnc2cnc(NCc3cccnc3)cc2c1NC1CCCCCC1 :: false
Cc1c(F)cc(C(=O)NC2CCCCC2)cc1-c1ccc(C(=O)NCC(C)(C)C)cc1C(=O)Nc1nccs1 :: false
CONC(=O)c1ccc(C)c(Nc2nc(NCC3CCCC(CN)C3)nc(NC3CCCCC3)n2)c1 (stereo not drawn) :: true
Nc1ccc2snc3c2c1C(=O)c1ccccc1-3 :: false
Cc1cnc(Cn2c(C)cc(OCc3ccc(F)cc3F)c(Br)c2=O)cn1 :: false
Cc1ccc(C(=O)NC2CC2)cc1-c1cc2cnnc(-c3ccccc3Cl)c2n(C)c1=O :: true
Cc1ccc(C(=O)NC2CC2)cc1-n1cnc2ccc(OCCN3CCCC3)cc2c1=O :: false
CC(C)(C)c1cc(NC(=O)NCc2ccccc2Sc2ccc3nnc(-c4ccccc4[S+]([O-])CCO)n3c2)n(-c2ccc(O)c(Cl)c2)n1 (stereo not drawn) :: true

---

Target or system EGFR (UniProt P00533): recorded IC50 listed per item.
reportedMetric: IC50

N#CC(C#N)=Cc1cc(O)c(O)c(O)c1 :: 50 µM
O=C(O)c1cc(N(Cc2ccccc2O)Cc2cc(O)ccc2O)ccc1O :: 0.14 µM

---

# targetSystem: MAPK14 (human)
# assayInfo: p38-alpha Kinase Inhibition
reportedMetric: IC50 (µM)

NC(=O)c1ccc(-c2nc(-c3ccc4c(c3)OCCO4)c(-c3ccccn3)[nH]2)cc1 :: 12
